Consider the following molecules; for each one, report its melting point.
Counter-ions that a name gives are not always drawn.
Answer format: numeric, °C implied, no suffix.

Which measured melting point value corresponds to COc1cc(OC)cc(N(CCNC(C)C)c2ccc3ncc(-n4cnc(COC(C)=O)c4)nc3c2)c1 ?
56

Which measured melting point value corresponds to COc1cc(OC)cc(N(CC2CC2)c2ccc3ncc(-c4ccc5c(c4)OCO5)nc3c2)c1 ?
144

Which measured melting point value corresponds to COc1cc(OC)cc(N(CC(O)C(F)(F)F)c2ccc3ncc(-c4cccnc4)nc3c2)c1 (single isomer, unassigned) [Compound 54] ?
210

Which measured melting point value corresponds to COc1cc(OC)cc(N(CC2CC2)c2ccc3ncc(-c4ccc5[nH]ccc5c4)nc3c2)c1 ?
181

Which measured melting point value corresponds to COc1cc(OC)cc(N(CCCO)c2ccc3ncc(-c4ccnc(N)c4)nc3c2)c1 ?
137

Which measured melting point value corresponds to COc1cc(OC)cc(N(CC2CC2)c2ccc3ncc(-n4cnc(CO)c4)nc3c2)c1 ?
154

Which measured melting point value corresponds to COc1cc(OC)cc(N(CCO)c2ccc3ncc(C(=O)Nc4cnn(C)c4)nc3c2)c1 ?
227

Which measured melting point value corresponds to COc1cc(OC)cc(N(CC2CC2)c2ccc3ncc(NC(=O)c4ccc(F)cc4)nc3c2)c1 ?
135

Which measured melting point value corresponds to CNc1ccc(-c2cnc3ccc(N(CCCNCC(F)(F)F)c4cc(OC)cc(OC)c4)cc3n2)cn1 ?
165

Which measured melting point value corresponds to COc1cc(OC)cc(N(CC2CC2)c2ccc3ncc(-n4cnc(C)c4)nc3c2)c1 ?
113

Which measured melting point value corresponds to COc1cc(OC)cc(N(CC2CC2)c2ccc3ncc(C(=O)NCc4ccc(F)cc4)nc3c2)c1 ?
140

Which measured melting point value corresponds to COc1cc(OC)cc(N(CC2CC2)c2ccc3ncc(-c4cccn4C)nc3c2)c1 ?
141

Which measured melting point value corresponds to COc1cc(OC)cc(N(CCNC(C)C)c2ccc3ncc(-c4ccccc4)nc3c2)c1 (as salt: HCl) (hydrate or solvate) ?
149

Which measured melting point value corresponds to COc1cc(OC)cc(N(CCNC(C)C)c2ccc3ncc(-c4ccn(C)c4)nc3c2)c1 (as salt: HCl) ?
200

Which measured melting point value corresponds to COc1cc(OC)cc(N(CC2CC2)c2ccc3ncc(Nc4nncs4)nc3c2)c1 ?
260

Which measured melting point value corresponds to COc1cc(OC)cc(N(CC2CC2)c2ccc3ncc(-c4ccncc4)nc3c2)c1 ?
105

Which measured melting point value corresponds to COc1cc(OC)cc(N(CCN2CCNCC2)c2ccc3ncc(-c4ccc(N)nc4)nc3c2)c1 ?
111

Which measured melting point value corresponds to COc1cc(OC)cc(N(CCN2CCOCC2)c2ccc3ncc(-c4ccc(N)nc4)nc3c2)c1 ?
164

Which measured melting point value corresponds to COc1cc(OC)cc(N(CCNC(C)C)c2ccc3ncc(-c4ccc(N)nc4)nc3c2)c1 ?
144

Which measured melting point value corresponds to CNC(=O)OCCN(c1cc(OC)cc(OC)c1)c1ccc2ncc(-c3ccc(NC(=O)OC(C)(C)C)nc3)nc2c1 ?
214

Which measured melting point value corresponds to COc1cc(OC)cc(N(CC2CC2)c2ccc3ncc(C#Cc4cncn4C)nc3c2)c1 ?
166

Which measured melting point value corresponds to COc1cc(OC)cc(N(CCO)c2ccc3ncc(-c4ccccc4CCO)nc3c2)c1 ?
133

Which measured melting point value corresponds to COc1cc(OC)cc(N(CCO)c2ccc3ncc(-c4ccc(N5CCN(C)CC5)nc4)nc3c2)c1 ?
160

Which measured melting point value corresponds to COc1cc(OC)cc(N(CC2CC2)c2ccc3ncc(-c4ccnc(N5CCN(C)CC5)c4)nc3c2)c1 ?
125

Which measured melting point value corresponds to COc1cc(OC)cc(N(CCCO)c2ccc3ncc(-c4ccc(N5CCNCC5)nc4)nc3c2)c1 ?
184

Which measured melting point value corresponds to COc1cc(OC)cc(N(CC2CC2)c2ccc3ncc(-c4cnc5[nH]ccc5c4)nc3c2)c1 ?
234

Which measured melting point value corresponds to COc1cc(OC)cc(N(CC2CC2)c2ccc3ncc(-c4ccccc4)nc3c2)c1 ?
84

Which measured melting point value corresponds to COc1cc(OC)cc(N(CC2CC2)c2ccc3ncc(-c4ccc(OC)nc4)nc3c2)c1 ?
116

Which measured melting point value corresponds to COc1cc(OC)cc(N(CC2CC2)c2ccc3ncc(C(=O)N4CCC4)nc3c2)c1 ?
176

Which measured melting point value corresponds to COc1cc(OC)cc(N(CC2CC2)c2ccc3ncc(-c4nnn[nH]4)nc3c2)c1 ?
216

Which measured melting point value corresponds to COc1cc(OC)cc(N(CCCO)c2ccc3ncc(-c4ccnc(F)c4)nc3c2)c1 ?
155
